The values you see were collected from the nanobody polyreactivity screen of Harvey et al. (2022).

protocol.notes: yeast display, Sf9 membrane polyspecificity reagent, FACS + sequencing; frameworks hold sequencing errors

sequence.content	polyreactivity (PSR sort gate)
QVQLVESGGGLVQAGGSLRLSCAASGSTFTQYAMGWYRQEPGKERELVAAITGSGGRTYYADSVKGRFTISRDNAKNTVYLQMNSLKPEDTAVYYCAARDKFGGYYHWGQGTQVTVSS	high polyreactivity
QVQLVESGGALVQAGGSLRLSCAASGYIFRYYAMGWYRQAPGKVREFVAAISRNGGSKSYADSVKGRFTISRDNAKNTVYLQMISLKPEDTAVYYCNKRVGFLYKSDYWGQGTQVTVSS	high polyreactivity

----------
protocol.notes: yeast display, Sf9 membrane polyspecificity reagent, FACS + sequencing; frameworks hold sequencing errors
quantity.kind: polyreactivity (PSR sort gate)

Known results for sequences:
sequence.content	quantity.kind	observed.value
QVQLVESGGGLVQAGGSLRLSCAASGRTFHRYVMGWYRQAPGKERELVAAITSGGRTTYADSVKGRFTISRDNAKNTVYLQMNSLKPEDTAVYYCAAELTVRGTWVQQRTFRYDYWGQGTQVTVSS	polyreactivity (PSR sort gate)	low polyreactivity
QVQLVESGGGLVQAGGSLRLSCAASGFTFLIYAMGWYIQAPGKERELVADISYNDDITYYADSVKGRFTISRDNAKNTVYLQMNSLKPEDTAVYYCAADYVNPELDYWGQGTQVTVSS	polyreactivity (PSR sort gate)	low polyreactivity
QVQLVESGGGLVQAGGSLRLSCAASGLTFRKYVMGWYRQAPGKERELVAAISGGGGSTYYADSVKGRFTISRDNAKNTVYLQMNSLKPEDTAVYYCAAVIYRGYYYWGQGTQVTVSS	polyreactivity (PSR sort gate)	high polyreactivity
QVQLVESGGGLVQAGGSLRLSCAASGRIFSRNAMGWSRQAPGKERELVAAISRSGGTTYYADSVKGRFTISRDNAKNTVYLQMISLKPEDTAVYYCAAYFWFYVQYEYWGQGTQVTVSS	polyreactivity (PSR sort gate)	high polyreactivity
QVQLLESGGGLVQAGGSLRLSCAASGSIFTPNNMGWYRQAPGKESEFVAAITFSGGSTYYADSVKGRFTISRDNAKNTVYLQMNSLKPEDTSVYYCAAVYPTYDWYTPAYYYWGQGTQVTVSS	polyreactivity (PSR sort gate)	low polyreactivity

Check the records and state polyreactivity (PSR sort gate) for QVQHVESGGGLDQAGGSLRLSCAASGFIFYDYMGWDRQAPGKQRELVAVISYSGSSTNYAYSVKGRFTITRDNAKMTVYLQINSLKPEDTAVYYWAARIVNGWDYDFWGQGSQVTVSS
low polyreactivity

Check the records and state polyreactivity (PSR sort gate) for QVQLVESGGGLVQAGGSLRLSCAASGSIFKTYAMGWNRQAPGKEREFVARITSSGGRTYYADSVKGRFTISRDNAKNTVYLQMNSLKPEDTAVYYCAKPYPRGYTTYSYDYWGQGTQVTVSS
high polyreactivity

Check the records and state polyreactivity (PSR sort gate) for QVQLVESGGGLVQAGGSLRLSCAASGRTFSRYAIGWYRQAPGKERELVASITSRGGSTYYADSVKGRFTISRDNAKNTVYLQMNSLKPEDTAVYYCNVKPTYSPRYWEDYWGQGTQVTVSS
high polyreactivity

Check the records and state polyreactivity (PSR sort gate) for QVQLVESGGGLVQAGGSLRLSCAASGRTFVTNAMGWYRQAPGKERELVAAISSGDDSTYYADSVKGRFTISRDNAKNTVYLQMNSLKPEDTAVYYCAAEGYYVDYYFYFHGFDYWGQGTQVTVSS
high polyreactivity

Check the records and state polyreactivity (PSR sort gate) for QVQLVESGGGLVQAGGSLRLSCAASGRIFYNAMGWYRQAPGKERELVAAITSNGGSTYYADSVKGRFTISRDNAKNTVYLQMNSLKPEDTAVYYCNAAIRYTASATHAFDYWGQGTQVTVSS
low polyreactivity
